# Measured target: human GLP-1 receptor (human, UniProt P43220 24-463)
# Procedure text: cell-based or functional assay
Bridges are numbered along the chain shown (N, C = ends). Where no end group is shown, it is not given here. [ ]: non-standard residue; d: D form. The star is where a group is joined. Acetyl(2-(4-imidazolyl)) = O=C(Cc1c[nH]cn1)*; Aib = CC(C)(N)C(=O)O
// classify: if (in vitro Activity Compared to Native Peptide (%), vs GLP-1 < 30%) YES else NO

Previously resolved entries follow.
Y[Aib]QGTFTSDYSKYLDECAAKDFVQWLLDHHPSSGQPPPS (bridge 16-20; not fully specified (C-terminus)) [triple agonist of SEQ ID NO: 67] ... YES
[Acetyl(2-(4-imidazolyl))]GEGTFTSDLSKYLDSRRQQLFVQWLKAGGPSSGAPPPSHG-NH2 [triple agonist of SEQ ID NO: 11] ... YES
Y[Aib]QGTFTSDYSKYLDECAAKEFVQWLLDHHPSSGQPPPS (bridge 16-20; not fully specified (C-terminus)) [triple agonist of SEQ ID NO: 64] ... NO
Y[Aib]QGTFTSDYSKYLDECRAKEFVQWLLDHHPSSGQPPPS-NH2 (bridge 16-20; also: ring type not given here) [triple agonist of SEQ ID NO: 21] ... YES
HGQGTFTSDCSKQLDGQAAQEFVAWLLAGGPSSGAPPPS (not fully specified (C-terminus)) [triple agonist of SEQ ID NO: 44] ... YES

Answer whether the binder Y[Aib]QGTFTSDCSKYLDERAAKDFVQWLLDHHPSSGQPPPS (bridge 16-20; not fully specified (C-terminus)) [triple agonist of SEQ ID NO: 72] has in vitro Activity Compared to Native Peptide (%), vs GLP-1 strictly less than 30% YES

Answer whether the binder [Acetyl(2-(4-imidazolyl))][Aib]EGTFTSDYSIAMDEIHQKDFVNWLLAQC (bridge 16-20; not fully specified (C-terminus)) [triple agonist of SEQ ID NO: 83] has in vitro Activity Compared to Native Peptide (%), vs GLP-1 strictly less than 30% NO

Answer whether the binder HGQGTFTSDCSKYLDEQHAQEFVAWLLAGGPSSGAPPPS (not fully specified (C-terminus)) [triple agonist of SEQ ID NO: 46] has in vitro Activity Compared to Native Peptide (%), vs GLP-1 strictly less than 30% YES

Answer whether the binder [Acetyl(2-(4-imidazolyl))][Aib]EGTFTSDYSIAMDEIHQKDFVDWLLAEKC (bridge 16-20; not fully specified (C-terminus)) [triple agonist of SEQ ID NO: 91] has in vitro Activity Compared to Native Peptide (%), vs GLP-1 strictly less than 30% NO
